biological target: UniProt:O14744; test: Inhibition of HA-tagged recombinant PRMT5 (unknown origin) expressed in HEK293T cells using [3H]SAM and histone H4 (1 to 20) as substrate after 8 mins by P81 filter binding assay
Sequence (O14744 whole entry): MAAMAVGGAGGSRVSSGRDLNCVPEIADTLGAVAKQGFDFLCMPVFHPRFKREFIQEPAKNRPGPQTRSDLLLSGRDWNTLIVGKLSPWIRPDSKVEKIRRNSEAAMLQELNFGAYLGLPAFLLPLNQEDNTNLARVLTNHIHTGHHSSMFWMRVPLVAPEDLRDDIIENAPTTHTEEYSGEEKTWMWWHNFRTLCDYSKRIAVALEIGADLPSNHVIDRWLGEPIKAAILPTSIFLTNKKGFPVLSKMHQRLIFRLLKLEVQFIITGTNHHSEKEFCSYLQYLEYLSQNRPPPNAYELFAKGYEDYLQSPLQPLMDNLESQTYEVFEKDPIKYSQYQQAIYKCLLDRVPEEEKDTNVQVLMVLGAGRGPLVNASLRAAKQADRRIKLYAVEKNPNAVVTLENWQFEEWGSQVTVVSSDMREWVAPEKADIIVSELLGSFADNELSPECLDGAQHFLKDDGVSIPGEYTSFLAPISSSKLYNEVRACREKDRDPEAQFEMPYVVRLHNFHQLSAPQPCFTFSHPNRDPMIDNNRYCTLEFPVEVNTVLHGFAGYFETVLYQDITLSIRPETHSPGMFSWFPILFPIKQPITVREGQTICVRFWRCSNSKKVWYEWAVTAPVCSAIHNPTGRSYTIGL
I'd be grateful if you could share measured pIC50 for these entries.
Note on pIC50: it is the negative log10 of concentration, concentration in mol/L.

// pIC50 value for "N=C(N)c1ccc(-c2ccc(-c3ccc(C(=N)N)nc3)o2)cc1" : 3.73

// pIC50 value for "N=C(N)c1ccc(-c2ccc(-c3ccc(C(=N)N)cc3)o2)cc1" : 3.78

// pIC50 value for "N=C(N)c1ccc(/C=C/c2ccc(C(=N)N)cc2)cc1" : 4.36
